System: A549
procedure.summary: Compound was tested for potency against human lung A549 cells using sulforhodamine B assay.
Type: functional, cell-based
// reported IC50 per item
All answers are understood in µM, so give the number only.

Please review the entries below; each comes with its answer.
C(=N\NC1=NCCN1)/c1ccc(/C=N/NC2=NCCN2)c2cc3ccccc3cc12    5
CN(C)CCNC(=O)c1c2ccccc2c(C(=O)NCCN(C)C)c2ccccc12    99
C(=N\NC1=NCCN1)/c1c2ccccc2c(/C=N/NC2=NCCN2)c2ccccc12    0.017
CN(C)CCNCc1ccc(CBr)c2cc3ccccc3cc12    91
CN(C)CCNC(=O)c1ccc(C(=O)NCCN(C)C)c2cc3ccccc3cc12    0.71

Request - read-out IC50 | tested on A549 | compound `CN(C)CCNCc1ccc(CNCCN(C)C)c2cc3ccccc3cc12` 8.1

Request - read-out IC50 | tested on A549 | compound `CN(C)CCNCc1c2ccccc2c(CNCCN(C)C)c2ccccc12` 5

---

System: SW480
procedure.summary: Compound was tested for potency against human colon carcinoma SW 480 cells in a sulforhodamine B assay.
Format: functional, cell-based
pIC50: −log10 of the molar value.
Cut-off 5 on pIC50, inclusive. At or above means y; below means n.

Below, 5 compounds whose answers are already recorded.
CN(C)CCNCc1c2ccccc2c(CNCCN(C)C)c2ccccc12    y
C(=N\NC1=NCCN1)/c1c2ccccc2c(/C=N/NC2=NCCN2)c2ccccc12    y
C(=N\NC1=NCCN1)/c1ccc(/C=N/NC2=NCCN2)c2cc3ccccc3cc12    y
CN(C)CCNCc1ccc(CNCCN(C)C)c2cc3ccccc3cc12    n
CN(C)CCNC(=O)c1ccc(C(=O)NCCN(C)C)c2cc3ccccc3cc12    y

API: the following record is the query input.
Evaluate `CN(C)CCNC(=O)c1c2ccccc2c(C(=O)NCCN(C)C)c2ccccc12` : pIC50 at minimum 5? n

---

Test system: WiDr
procedure.summary: Compound was tested for potency against human colon carcinoma WiDr cells in a sulforhodamine B assay.
Format: functional, cell-based
pIC50: −log10 of the molar value.
Cut-off 5 on pIC50, inclusive. At or above means Fulfilled; below means Not fulfilled.

CN(C)CCNC(=O)c1c2ccccc2c(C(=O)NCCN(C)C)c2ccccc12    Not fulfilled
C(=N\NC1=NCCN1)/c1ccc(/C=N/NC2=NCCN2)c2cc3ccccc3cc12    Fulfilled
CN(C)CCNC(=O)c1ccc(C(=O)NCCN(C)C)c2cc3ccccc3cc12    Fulfilled
CN(C)CCNCc1c2ccccc2c(CNCCN(C)C)c2ccccc12    Fulfilled
CN(C)CCNCc1ccc(CBr)c2cc3ccccc3cc12    Not fulfilled
CN(C)CCNC(=O)c1ccc(C(=O)NCCN(C)C)c2c1C(=O)c1ccccc1C2=O    Fulfilled

Evaluate `C(=N\NC1=NCCN1)/c1c2ccccc2c(/C=N/NC2=NCCN2)c2ccccc12` : pIC50 at minimum 5? Fulfilled

Evaluate `CN(C)CCNCc1ccc(CNCCN(C)C)c2cc3ccccc3cc12` : pIC50 at minimum 5? Not fulfilled
